biological target: UniProt P50406; assay: Displacement of [3H]LSD from Homo sapiens (human) 5-HT6 receptor expressed in Homo sapiens (human) HEK293 cells; type: cell-based
Response field label: string, one of Condition met (Ki strictly below 300 nM) or Condition not met.

Solved cases below.
NCCc1c(-c2ccccc2)[nH]c2ccncc12 :: Condition not met
CN(C)CCc1c(-c2ccccc2)[nH]c2ccncc12 :: Condition met
CCc1[nH]c2ccncc2c1CCN :: Condition not met
CN(C)CCc1c[nH]c2ccncc12 :: Condition met

Asked: Please indicate whether the reported Ki of CN(C)CCc1cn(S(=O)(=O)c2ccccc2)c2ccncc12 is strictly below 300 nM.
Given back: Condition met

Asked: A record lists NCCc1c[nH]c2ccncc12 . Is its Ki below 300 nM?
Given back: Condition met

Asked: # TODO verify Ki < 300 nM strictly for this compound: CCc1[nH]c2ccncc2c1CCN(C)C
Given back: Condition not met

Asked: Decide: Ki of Cc1cn(S(=O)(=O)c2ccc(N)cc2)c2ccncc12 strictly below 300 nM?
Given back: Condition met

###

target: 5-hydroxytryptamine receptor 6 (Homo sapiens); assay: Binding affinity to 5-HT6 receptor (unknown origin)
Sequence (P50406 whole entry): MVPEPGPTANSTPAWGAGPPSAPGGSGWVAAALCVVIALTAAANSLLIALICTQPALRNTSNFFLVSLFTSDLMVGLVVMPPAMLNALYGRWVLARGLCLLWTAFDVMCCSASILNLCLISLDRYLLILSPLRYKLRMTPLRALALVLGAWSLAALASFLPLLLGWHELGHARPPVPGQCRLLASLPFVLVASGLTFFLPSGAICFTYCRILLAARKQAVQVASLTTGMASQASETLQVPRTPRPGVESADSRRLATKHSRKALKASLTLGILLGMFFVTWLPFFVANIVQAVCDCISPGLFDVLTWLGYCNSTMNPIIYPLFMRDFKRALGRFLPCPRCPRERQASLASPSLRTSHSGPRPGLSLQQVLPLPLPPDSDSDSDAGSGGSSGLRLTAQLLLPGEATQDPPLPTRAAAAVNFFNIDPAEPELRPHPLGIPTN
PROPERTY: Ki

Asked: Item under review: CNc1cc(NS(=O)(=O)c2ccc(N)cc2)nc(NC)n1 . Reported Ki?
Given back: 0.058 µM
